Cited source: paper PMC5778463

target: B/Memphis cap-midlink double domain (Influenza B virus, UniProt Q5V8X3); experiment: biochemical
Sequence (Q5V8X3 249-540 limits assumed): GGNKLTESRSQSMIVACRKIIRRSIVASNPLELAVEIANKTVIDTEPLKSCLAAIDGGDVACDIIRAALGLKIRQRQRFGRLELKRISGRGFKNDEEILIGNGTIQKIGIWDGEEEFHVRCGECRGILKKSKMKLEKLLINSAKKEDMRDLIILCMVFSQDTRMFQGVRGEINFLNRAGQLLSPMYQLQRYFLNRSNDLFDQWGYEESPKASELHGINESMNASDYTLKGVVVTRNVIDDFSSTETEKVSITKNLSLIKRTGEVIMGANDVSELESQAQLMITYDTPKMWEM
reported endpoint: pKd
Give only the number. pKd is defined as minus log10 of concentration in molar units.

# input Using the record for O=C(O)[C@H]1C2CCC(CC2)[C@@H]1Nc1nc(-c2c[nH]c3ncc(F)cc23)ncc1F , state its measured pKd.
# output 5.92
